pIC50: −log10 of the molar value.
Recorded pIC50 values (E. coli LpxC (Escherichia coli, UniProt P0A725)) are given below.

Record excerpt, results attached:
O=c1[nH]cnc(C(CNCc2cccnc2)Cc2ccc(C#Cc3ccc(CN4CCOCC4)cc3)cc2)c1O (stereo not shown) :: > 8.00
O=c1[nH]cnc(CCc2ccc(C#Cc3ccc(CNC4CC(O)C4)cc3)cc2)c1O (stereo not shown) :: 7.30 to 8.00
C[C@@H]1CN(Cc2ccc(C#Cc3ccc(CC(CNCCF)c4nc[nH]c(=O)c4O)cc3)cc2)C[C@@H](C)O1 (stereo partly shown) :: 6.00 to 7.00
O=c1[nH]cnc(C(CNCCF)Cc2ccc(C#Cc3ccc(CN4CC5CCC(C4)O5)cc3)cc2)c1O (stereo not shown) :: 6.00 to 7.00
Cc1nnc(NCC(Cc2ccc(C#Cc3ccc(CN4CCOCC4)cc3)cc2)c2nc[nH]c(=O)c2O)o1 (stereo not shown) :: 7.00 to 7.30

Report pIC50 for C[C@H]1CN(Cc2ccc(C#Cc3ccc(CC(CNCCF)c4nc[nH]c(=O)c4O)cc3)cc2)C[C@H](C)O1 (stereo partly shown) please.
6.00 to 7.00

Report pIC50 for O=c1[nH]cnc(C(CNCCF)Cc2ccc(C#Cc3ccc(CNC4COC4)cc3)cc2)c1O (stereo not shown) please.
7.00 to 7.30
